# procedure.details: Dissociation constant (Kd) for the equilibrium binding to the monoclonal antibodies DB19/25 which were raised in mice was determined
# Design: species or system Mus musculus
attribute.measured: Kd (nM)

[P] CC(=O)N[C@@H](Cc1ccc(O)cc1)C(=O)N(C)[C@@H](C)C(=O)N[C@@H](Cc1ccc(O)cc1)C(=O)N[C@@H](CC(=O)O)C(=O)N[C@@H](C(=O)N1CCC[C@@H]1C(=O)N[C@H](CC(=O)O)C(=O)N[C@H](Cc1ccc(O)cc1)C(=O)N[C@H](C)C(=O)O)C(C)C
[Q] CC(=O)N[C@@H](Cc1ccc(O)cc1)C(=O)N1CCC[C@H]1C(=O)N[C@@H](Cc1ccc(O)cc1)C(=O)N[C@@H](CC(=O)O)C(=O)N[C@@H](C(=O)N1CCC[C@@H]1C(=O)N[C@H](CC(=O)O)C(=O)N[C@H](Cc1ccc(O)cc1)C(=O)N[C@H](C)C(=O)O)C(C)C
[R] CC(=O)N[C@@H](Cc1ccc(O)cc1)C(=O)N1CCC[C@@]1(C)C(=O)N[C@@H](Cc1ccc(O)cc1)C(=O)N[C@@H](CC(=O)O)C(=O)N[C@@H](C(=O)N1CCC[C@@H]1C(=O)N[C@H](CC(=O)O)C(=O)N[C@H](Cc1ccc(O)cc1)C(=O)N[C@H](C)C(=O)O)C(C)C
[S] CC(=O)N[C@@H](Cc1ccc(O)cc1)C(=O)N1CCC[C@H]1C(=O)N[C@@H](Cc1ccc(O)cc1)C(=O)N[C@@H](CC(=O)O)C(=O)N[C@@H](C(=O)N(C)[C@@H](C)C(=O)N[C@H](CC(=O)O)C(=O)N[C@H](Cc1ccc(O)cc1)C(=O)N[C@H](C)C(=O)O)C(C)C
# rank by Kd, ascending (min first) The labels, placed in the requested order, form the answer.
R, Q, S, P

---

# procedure.details: Dissociation constant (Kd) for the equilibrium binding to the monoclonal antibodies DB19/1 which were raised in mice was determined
# Design: species or system Mus musculus
attribute.measured: Kd (nM)

[I] CC(=O)N[C@@H](Cc1ccc(O)cc1)C(=O)N1CCC[C@H]1C(=O)N[C@@H](Cc1ccc(O)cc1)C(=O)N[C@@H](CC(=O)O)C(=O)N[C@@H](C(=O)N(C)[C@@H](C)C(=O)N[C@H](CC(=O)O)C(=O)N[C@H](Cc1ccc(O)cc1)C(=O)N[C@H](C)C(=O)O)C(C)C
[II] CC(=O)N[C@@H](Cc1ccc(O)cc1)C(=O)N(C)[C@@H](C)C(=O)N[C@@H](Cc1ccc(O)cc1)C(=O)N[C@@H](CC(=O)O)C(=O)N[C@@H](C(=O)N1CCC[C@@H]1C(=O)N[C@H](CC(=O)O)C(=O)N[C@H](Cc1ccc(O)cc1)C(=O)N[C@H](C)C(=O)O)C(C)C
[III] CC(=O)N[C@@H](Cc1ccc(O)cc1)C(=O)N1CCC[C@@]1(C)C(=O)N[C@@H](Cc1ccc(O)cc1)C(=O)N[C@@H](CC(=O)O)C(=O)N[C@@H](C(=O)N1CCC[C@@H]1C(=O)N[C@H](CC(=O)O)C(=O)N[C@H](Cc1ccc(O)cc1)C(=O)N[C@H](C)C(=O)O)C(C)C
[IV] CC(=O)N[C@@H](Cc1ccc(O)cc1)C(=O)N1CCC[C@H]1C(=O)N[C@@H](Cc1ccc(O)cc1)C(=O)N[C@@H](CC(=O)O)C(=O)N[C@@H](C(=O)N1CCC[C@@H]1C(=O)N[C@H](CC(=O)O)C(=O)N[C@H](Cc1ccc(O)cc1)C(=O)N[C@H](C)C(=O)O)C(C)C
# rank by Kd, ascending (min first) The labels, placed in the requested order, form the answer.
III, I, IV, II

Values compiled from ChEMBL document CHEMBL1125905.
